System: human hepatocarcinoma cell line SIMM-7721
ASSAY REMARKS: SRB proliferation assay, SIMM-7721
Format: cell-based
CONDITION LABEL: SIMM-7721, liver cancer, 72 hours
MEASUREMENT KIND: IC50

> print(dat)
                                   compound                             system.tested  observed.measurement
1  O=c1ccc(-c2ccc(N3CCCC3)c(C(F)(F)F)c2)n[nH]1  human hepatocarcinoma cell line SIMM-7721              < 100 nM

----------
Tested on: HCCC-9810 liver cancer cells
ASSAY REMARKS: SRB assay Example 17, HCCC-9810
Format: cell-based
CONDITION LABEL: Homo sapiens, HCCC9810, 72 h
MEASUREMENT KIND: IC50

> print(dat)
                                   compound  observed.measurement
1  CN1CCN(c2ccc(-c3ccc(=O)[nH]n3)cc2C(F)(F)F)CC1               > 10 µM
